Overview of reported z-score across a group of compounds:
Assay: resazurin metabolic signal in HepG2 cells – cell-based, resazurin fluorescence, 24 h, PK04 Diversity Set, profiling panel (AID 1172); also: test concentration not given here
Conditions: HepG2 viability, higher = more signal
Quantity Kind: z-score

>>> test_value("CC[C@@H]1C=C(C(=O)O)[C@H](c2ccc(C(C)C)cc2)N1S(=O)(=O)c1ccc(C)cc1")
-0.892
>>> test_value("CCCNC(=O)[C@@]1(C)c2ccccc2C(=O)N(Cc2ccc(OC(F)(F)F)cc2)[C@H]1c1ccc(CO)cc1")
-0.0818
>>> test_value("COc1c(C)cc(-c2cc3c(c(-c4ccccc4)n2)[Si](C(C)C)(C(C)C)O[C@H]3c2ccccc2)cc1C")
-0.315
>>> test_value("O=C1C2C=CC(C(O)CCc3ccccc3)N(Nc3ccccc3)C2C(=O)N1c1ccccc1 (centres undefined)")
-0.999

---

Measured composite z-score accompanies every entry in the list below.
Tested on: Chordin-like protein 2 (CHRDL2)
Assay: compounds binding chordin-like 2 – biochemical, small-molecule microarray, 635 nm fluorescence, primary screen (AID 1126);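 also: printed compound slides probed with Chrdl2 protein at 4 µg/mL for 1 h at 4 C; score merges 667 nm emission intensity with signal to noise over three replicate slides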
Settings: fluorescence 635 nm, higher = more signal
Quantity Kind: composite z-score

>>> test_value("O=c1cccc(-c2ccccc2)o1")
0.223
>>> test_value("COCCCNC(=O)[C@@]1(Sc2ccc(C)cc2)CC(=O)N(Cc2ccccc2)[C@@H]1c1ccc(CO)cc1")
-0.21
>>> test_value("COCCCNC(=O)[C@@]1(Cc2ccccc2I)c2ccccc2C(=O)N(Cc2ccccc2)[C@H]1c1ccc(CO)cc1")
-1.47
>>> test_value("O=C1C[C@@](C(=O)O)(c2ccc([N+](=O)[O-])cc2)[C@@H](c2ccc(CO)cc2I)N1CC12CC3CC(CC(C3)C1)C2")
-1.42
>>> test_value("C[C@H]1C2[C@H](Cc3ccccc3)NC(=O)[C@]23C(=O)N[C@H](Cc2ccccc2)C(=O)N[C@H](Cc2ccccc2)C(=O)NC/C=C/CCC/C=C/C3[C@@H]2O[C@]12C (stereo partly drawn)")
0.8
>>> test_value("C=C(C(=O)CC[C@@H](OC(=O)c1cccnc1)c1ccc(OCCO)cc1)C(C)C")
0.606
>>> test_value("CCOC(=O)C1=CC[C@@H](c2cccc(Cl)c2)N(S(=O)(=O)c2ccc(C)cc2)[C@H]1c1ccc(C#N)cc1")
-0.0727
>>> test_value("Cc1ccc(F)cc1S(=O)(=O)N[C@@H]1CCN(Cc2ccc(C(F)(F)F)cc2)C1")
0.509

---

Assay: change in splice reporter luminescence, either direction, cell-based, HEK293, spliceosome inhibition project, primary screen (AID 1101);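 also: HEK293 cells carrying a splicing-competent luciferase reporter gene; test concentration not given here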
Conditions: HEK293 splicing luciferase reporter, 24 h, higher = more signal, called active from +8 up or from −8 down
We begin with a simple list: items and their reported z-score.
Quantity Kind: z-score

>>> test_value("CCN(CC)c1ccc(N2CC=CC34O[C@@H]5/C=C\\CCCOC(=O)C5[C@H]3C(=O)N(CCCO)[C@@H]4C2=O)cc1 (stereo partly drawn)")
0.821
>>> test_value("CN(C)CCCCNC(=O)[C@@H]1C[C@@H]2C(=O)N[C@@H](CCCCN)C(=O)N2[C@@H]1c1cccc(OCCO)c1")
-0.239
>>> test_value("C=CCC(OC(C)=O)[C@@H]1[C@@H](N(Cc2cc3ccccc3o2)C(=O)c2ccc(-c3ccccc3)cc2)c2cc(OCCCO)ccc2N1C(=O)Cc1ccc2ccccc2c1 (stereo partly drawn)")
0.121
>>> test_value("O=c1cccc(-c2ccccc2)o1")
0.92
>>> test_value("Cn1c2c(c3ccccc31)C(=O)C1NC2C=CC1(C)C(=O)OCc1ccccc1 (stereo not drawn)")
0.167
>>> test_value("CCOC(=O)C1=CC[C@@H](c2ccccc2)N(S(=O)(=O)c2ccc(C)cc2)[C@H]1c1ccc(C#N)cc1")
-0.29
>>> test_value("COCCCNC(=O)[C@]1(Cc2ccccc2N=[N+]=[N-])N=C(c2ccc(OCCCO)cc2)O[C@@H]1c1ccccc1CN=[N+]=[N-]")
-0.4
>>> test_value("COC(=O)c1c(CC[C@@H](CO)NC(=O)Nc2ncn[nH]2)oc(C(=O)Cc2ccccc2)c1C(=O)OC")
0.801
